Target: pooled human IgG
measured.property: Enzyme Activity Endpoint Assay (purified): Fc (ng/µL)
# output: bare number, implied unit ng/µL

Enquiry: Quick check: Enzyme Activity Endpoint Assay (purified): Fc of PRT-130 (protein) MRNATEAYAKEVPHQITSVWTKGVTPLTPEQFRYNNEDVIHAPYLAHQGWYDITKAFDGKDNLLCGAATAGNMLHWWFDQNKTEIEAYLSKHPEKQKIIFNNQELFDLKAAIDTKDSQTNSQLFNYFRDKAFPNLSARQLGVMPDLVLDMFINGYYLNVFKTQSTDVNRPYQDKDKRGGIFDAVFTRGDQTTLLTARHDLKNKGLNDISDIIKQELTEGRALALSHTYANVSISHVINLWGADFNAEGNLEAIYVTDSDSNASIGMKKYFVGINAAGHVAISAKKIEGENIGAQVLGLFTLSSGKDIWQKLS ?
Return: 192

Enquiry: # get_value(readout='Enzyme Activity Endpoint Assay (purified): Fc', item= PRT-123 (protein) MRNATEAYNKESPHTITSVWTKGVTPPTPEDFRYNNEDVLHAPYVANQGWYDITKTFDGKDNLLCGAATAGNMLHWWFDQNKEEIERYLKKHPEKQKIIFNNQELFDVKAAIDTKDSQTNSKLFNYFRDKAFPNLSARQLGVMPDLVLDMFINGYYLNLGKTQSTDVNRPYQDKDKRGGIFDAVFTRGDQTTLLTARHDLKNKGLNEISDLIKQELTEGKALALSHTYANVRINHVINLWGADFDAEGNLIAIYVTDSDANASIGMKKYFVGVNANGKVAISAKKIEGDNIGAQVLGLFTLSTGQDIWQKLS )
Return: 187

Enquiry: // lookup Enzyme Activity Endpoint Assay (purified): Fc for PRT-55 (protein) MANQEIRYSEVTPYHVTSVWTKGVTPPANFTQGEDVFHAPYVANQGWYDITKTFNGKDDLLCGAATAGNMLHWWFDQNKDQIDRYLEEHPEKAKINFNGEQMFDVKEAIDTKNHQLDSKLFEYFKEKAFPYLSTKHLGVFPDLVIDMFINGYRLSLTNHGPTPVKEGSKDPRGGFFDAVFGRGDQSKLLTSRHDFKEKNLKEISDLIKKELTEGKALGLSHTYANVRINHVINLWGADFDSNGNLKAIYVTDSDSNASIGMKKYFVGVNSAGKVAISAKEIKEDNIGAQVLGLFTLSTGQDSWNQTN
Return: 70

Enquiry: So what does the record say about Enzyme Activity Endpoint Assay (purified): Fc for PRT-140 (protein) MRNATEAYAKEVPHQITSVWTKGVTPLTPEQFRYNNEDVIHAPYLAHQGWYDITKAFNGKDNLLCGAATAGNMLHWWFDQNKTEIEAYLSKHPEKQKIIFNNQELFDLKAAIDTKDSQTNSQLFNYFRDKAFPNLSARQLGVMPDLVLDMFINGYYLNVFKTQSTDVNRPYQDKDKRGGIFDAVFTRGDQTTLLTARHDLKNKGLNDISTIIKQELTEGRALALSHTYANVSISHVINLWGADFNAEGNLEAIYVTDSDANASIGMKKYFVGINAHGHVAISAKKIEGENIGAQVLGLFTLSSGKDIWQKLS ?
Return: 213

Enquiry: Return reported Enzyme Activity Endpoint Assay (purified): Fc; argument: PRT-665 (protein) MQITSVWTKGVTPPTPEQFRYNNEDVIHAPYLAHQGWYDITKAFDGKDNLLCGAATAGNMLHWWFDQNKTEIEAYLSKYPEKQKIIFNNQELFDLRAAINTKDSQTNSQLFNYFRDKAFPNLSARQLGVMPDLVLDMFINGYYLNVFKTQSTDVNRPYQDKDKRGGIFDAVFTRGDQTTLLTARHDLSNKGLNDISTIIKQELTEGRALALSHTYANVSISHVINLWGADFNAEGNLEAIYVTDSDSNASIGMKKYYVGINASGHVAISAKKIEGEVIGAQVLGLFTLSSGKEIWQKLSLEHHHHHH
Return: 414

Enquiry: Which Enzyme Activity Endpoint Assay (purified): Fc value belongs to PRT-305 (protein) MVTSVWTKGVTPPTDFIKGEDVFHAPYKAGQGWYDITKEFNGKDDLLCGAATAGNMLHWWFDQNKEYIEAYLKKHPEKQKIMFGDQELLDVRKAINTKGSQKNSELFNYFRDKAFPNLSARRLGVMPDLVLDMFINGYYLNVTKTQTTDVNRTYQEKDKRGGIFDAVFTRGDQSKLLTSRHDFKEKGLKEISDLIKQELTEGKALGLSHTYANVRIGHVINLWGADFDSDGNLKAIYVTDSDSNASIGMKKYGVGVNSAGKVAISAKEIKEDNIGAQVLGLFTLSTGQDIWNQTN ?
Return: 359

Enquiry: I have this protein here, PRT-83 (protein) MANQEIRYSEETPYHVTSVWTKGVTPPEKFTQGEDVFHAPYVANQGWYDITKTFNGKDDLLCGAATAGNMLHWWFDQNKDQIEAYLSKHPEKQKIMFGDQELLDVRKAINTKDSQTNSELFNYFRDKAFPNLSARRLGVMPDLVLDMFINGYRLNVTKTQTTDVNETYQEKDKRGGIFDAVFTRGDQSKLLTSRHDFKEKTLNEISDLIKKELTEGKALGISHTYANVRINHVINLWGADFNSEGNLEAIYVTDSDSNASIGMKKYFVGVNSAGKVAISAKEIEEENIGAQVLGLFTLSTGQDIWQQTN , and I need its recorded Enzyme Activity Endpoint Assay (purified): Fc.
Return: 44

Enquiry: For PRT-229 (protein) MEVVEVWPYGQNPNGKTEILSQTEDSESLQRLRDIEDFQAEKKKQNVVYTKWLDGVDVKDHDFRKIVDGNIAYYATPLLNGRGFYDINKDFNRDSDKCAAAVAANMFHYWLDINRDNVDRFLRQNPEKHGIIELPDGQLKLSDFLNTYESDHGYRDKSKLFDFISNNFNGPVWTDKLLDNYINGYAYNYKYGRTIEDPTKNTSKINFFKEVFNEKILTNNHSIRNQNEFSVLLSEALYTGKAIGLSYGPAGLRHSLGHIISVWGADLDADGNVVAIYVTDSDDKKLTIGDERVGLKRYKISTDDENRLRLTAYEETHNTGGQIRGLWTLDTGKYAWADYFDKTEQTGTDQAEQLEHHHHHH , what is its reported Enzyme Activity Endpoint Assay (purified): Fc?
Return: 243
